Measured On: Recombinant full length human OGA enzyme (Homo sapiens (Human), UniProt O60502)
Sequence (O60502 whole entry): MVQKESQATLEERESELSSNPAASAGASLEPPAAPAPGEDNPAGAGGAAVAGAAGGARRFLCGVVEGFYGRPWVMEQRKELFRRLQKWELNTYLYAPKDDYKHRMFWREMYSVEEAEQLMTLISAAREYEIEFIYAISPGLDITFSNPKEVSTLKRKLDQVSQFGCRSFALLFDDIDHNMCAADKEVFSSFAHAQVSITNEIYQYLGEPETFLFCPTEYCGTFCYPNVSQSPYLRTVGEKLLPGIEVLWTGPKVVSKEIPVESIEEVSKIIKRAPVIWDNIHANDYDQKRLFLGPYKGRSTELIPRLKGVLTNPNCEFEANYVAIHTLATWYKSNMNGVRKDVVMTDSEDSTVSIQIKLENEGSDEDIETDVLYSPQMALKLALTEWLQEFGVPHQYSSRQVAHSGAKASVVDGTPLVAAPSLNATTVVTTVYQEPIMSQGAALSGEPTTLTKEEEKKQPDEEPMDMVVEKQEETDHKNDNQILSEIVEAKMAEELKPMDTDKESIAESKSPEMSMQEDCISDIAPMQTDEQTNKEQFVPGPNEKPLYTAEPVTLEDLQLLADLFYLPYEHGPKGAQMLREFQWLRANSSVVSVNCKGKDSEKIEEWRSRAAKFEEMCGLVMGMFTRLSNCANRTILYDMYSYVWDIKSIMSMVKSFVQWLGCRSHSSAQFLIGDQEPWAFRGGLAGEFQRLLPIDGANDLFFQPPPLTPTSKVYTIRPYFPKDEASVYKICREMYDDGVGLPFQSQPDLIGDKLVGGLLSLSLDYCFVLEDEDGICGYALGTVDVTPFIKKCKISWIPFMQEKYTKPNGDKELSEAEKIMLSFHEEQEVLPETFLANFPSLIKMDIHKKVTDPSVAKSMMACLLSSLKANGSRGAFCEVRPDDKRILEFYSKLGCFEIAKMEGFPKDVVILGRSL
Protocol: OGA Enzyme Inhibition Biochemical Assay
Protocol Conditions: 1 nM OGA, 100 μM 4-MUGlcNAc, 90 minutes, pH 6.4
Attribute Measured: pIC50
# log scale: pIC50 equals minus log10 of the concentration in mol/L

Using the record for CC(=O)Nc1nc(F)c(CN2C[C@@]3(Cc4cc(C(F)F)ncc4O3)C[C@@H]2C)s1 , state its measured pIC50. 8.52

Fill in pIC50 for record CC(=O)Nc1ncc(CN2C[C@@]3(Cc4cc(N5C[C@H](C)O[C@@H](C)C5)ncc4O3)C[C@@H]2C)s1 8.72

Please indicate pIC50 recorded for CC(=O)Nc1ncc(CN2C[C@@]3(Cc4cc(C(F)(F)F)ncc4O3)C[C@@H]2C)s1 7.77

Indicate the recorded pIC50 value for this molecule: CC(=O)Nc1nc(F)c(CN2CCC[C@]3(C2)OCc2cnccc23)s1 (single isomer, unassigned) 6.07

Specify reported pIC50 for the molecule shown: COc1cccc2c1OC1(CCN(Cc3sc(NC(C)=O)nc3F)C1)C2 (centres unmarked) 6.44

Identify measured pIC50 corresponding to CC(=O)Nc1nc(F)c(CN2C[C@@]3(Cc4ccncc4O3)C[C@@H]2C)s1 9.00

* * *

Test system: P-gp (MDR1)
Protocol: MDR1-MDCK Efflux Ratio Assay
Format: in vitro ADME
Protocol Conditions: dog, MDR1-MDCK cells, pH 7.4, read-out: MDR1-MDCK Efflux Ratio (B-A/A-B)
For each of the compounds below, state its efflux ratio at 2 hr.
Please give only the number in your answer, with no unit.

Look up and state reported efflux ratio at 2 hr for CC(=O)Nc1ncc(CN2CCC3(C2)OCc2ccccc23)s1 (stereo not shown) [Example 57] 2.4

Note down efflux ratio at 2 hr recorded for CC(=O)Nc1ncc(CN2CCCC3(C2)OCc2ccncc23)s1 (stereo not shown) [Example 74] 36.5

Provide measured efflux ratio at 2 hr value, entry: CC(=O)Nc1nc(F)c(CN2C[C@@]3(Cc4cc(N5C[C@@H](C)O[C@H](C)C5)ncc4O3)C[C@@H]2C)s1 [Example 41] 19.5

Please list efflux ratio at 2 hr recorded for the compound COc1cccc2c1OC1(CCN(Cc3sc(NC(C)=O)nc3F)C1)C2 (stereo not shown) [Example 4] 3.1

Supply reported efflux ratio at 2 hr belonging to this compound: CC(=O)Nc1nc(F)c(CN2CCC3(Cc4cnc(Cl)cc4O3)C2)s1 (stereo not shown) [Example 7] 6.7

Provide efflux ratio at 2 hr value for the following compound: COCCOc1cc2c(cn1)O[C@]1(C2)C[C@H](C)N(Cc2sc(NC(C)=O)nc2F)C1 [Example 47] 9.2

Return reported efflux ratio at 2 hr. Input compound: CC(=O)Nc1ncc(CN2CCC3(Cc4ccccc4O3)C2)s1 (stereo not shown) [Example 3] 1.7

Tell me measured efflux ratio at 2 hr for CC(=O)Nc1ncc(CN2C[C@@]3(Cc4cc(N5C[C@@H](C)O[C@H](C)C5)ncc4O3)C[C@@H]2C)s1 [Example 40] please. 27

Return the recorded efflux ratio at 2 hr value; entry: COc1cc2c(cn1)[C@]1(C[C@H](C)N(Cc3cnc(NC(C)=O)s3)C1)OC2 (single isomer, unassigned) [Example 76-a] 17.7

Identify measured efflux ratio at 2 hr corresponding to CC(=O)Nc1nc(F)c(CN2C[C@@]3(Cc4cc(C5CC5)ncc4O3)C[C@@H]2C)s1 [Example 24] 6.5

In one line, give reported efflux ratio at 2 hr of the entry COc1nccc2c1COC21CCCN(Cc2cnc(NC(C)=O)s2)C1 (stereo not shown) [Example 82] . 4.4

Please list efflux ratio at 2 hr recorded for the compound COc1nccc2c1COC21CCCN(Cc2sc(NC(C)=O)nc2F)C1 (stereo not shown) [Example 81] 2.5

Output efflux ratio at 2 hr of CC(=O)Nc1nc(F)c(CN2C[C@@]3(Cc4cc(N5C[C@H](C)O[C@@H](C)C5)ncc4O3)C[C@@H]2C)s1 [Example 43] 17.5

Note efflux ratio at 2 hr for the compound shown: CC(=O)Nc1nc(F)c(CN2C[C@@]3(Cc4cc(N5CCN(C)CC5)ncc4O3)C[C@@H]2C)s1 [Example 45] 94

Give efflux ratio at 2 hr for the following compound: CC(=O)Nc1nc(F)c(CN2C[C@@]3(Cc4cc(N5C[C@@H](C)O[C@@H](C)C5)ncc4O3)C[C@@H]2C)s1 [Example 39] 9.7

Supply measured efflux ratio at 2 hr of CC(=O)Nc1nc(F)c(CN2C[C@@]3(Cc4cc(=O)n(C)cc4O3)C[C@@H]2C)s1 [Example 48] in your reply. 12

* * *

For each of the molecules below, state its IC50.
Measured On: UniProt O60502
Protocol: Cellular OGA-Tau MSD Assay
Protocol Conditions: HEK-293T cells transfected with OGT and Tau-V5; Tau-S400-GlcNAc MSD readout
Provide the reading as a plain figure in nM.

Please supply the value of reported IC50 for the item CC(=O)Nc1nc(F)c(CN2CCC[C@@]3(C2)OCc2cnccc23)s1 (single isomer, unassigned) [Example 70-a] 8.4

Identify measured IC50 corresponding to CC(=O)Nc1nc(F)c(CN2CC3(C[C@@H]2C)OCc2ncccc23)s1 (stereo partly shown) [Example 79] 5

Tell us which IC50 value is on record for CC(=O)Nc1nc(F)c(CN2C[C@@]3(Cc4cc(C5CC5)ncc4O3)C[C@@H]2C)s1 [Example 24] 12

Determine its reported IC50: CC(=O)Nc1nc(F)c(CN2C[C@@]3(C[C@@H]2C)OCc2cnccc23)s1 (single isomer, unassigned) [Example 64-a] 118

Note down IC50 recorded for CC(=O)Nc1nc(F)c(CN2C[C@@]3(Cc4cc(N5C[C@@H](C)O[C@@H](C)C5)ncc4O3)C[C@@H]2C)s1 [Example 39] 4.9

State its IC50: COc1cc2c(cn1)[C@]1(C[C@H](C)N(Cc3cnc(NC(C)=O)s3)C1)OC2 (single isomer, unassigned) [Example 76-a] 62

Supply measured IC50 of CC(=O)Nc1ncc(CN2CCCC3(CCc4ccccc43)C2)s1 (stereo not shown) [Example 53] in your reply. 532

* * *

Measured On: Recombinant full length human OGA enzyme (Homo sapiens (Human), UniProt O60502)
Protocol: OGA Enzyme Inhibition Biochemical Assay
Protocol Conditions: 1 nM OGA, 100 μM 4-MUGlcNAc, 90 minutes, pH 6.4
Each entry falls in a class defined on IC50; the bands are lower level: < 2 nM; middle level: ≥ 2 nM and < 7 nM; upper level: ≥ 7 nM

Category lookup for the compound COc1nccc2c1COC21CCCN(Cc2cnc(NC(C)=O)s2)C1 (stereo not shown) [Example 82] lower level

Which class does CC(=O)Nc1nc(F)c(CN2C[C@@]3(Cc4cc(NC5CC5)ncc4O3)C[C@@H]2C)s1 [Example 31] fall in? lower level

Please indicate the class for CC(=O)Nc1nc(F)c(CN2C[C@@]3(Cc4ccccc4O3)C[C@@H]2C)s1 [Example 1] based on its IC50. upper level

// return the class label for CC(=O)Nc1ncc(CN2CCCC3(C2)OCc2c3ccnc2Cl)s1 (stereo not shown) [Example 85] middle level

State the class of the compound shown: CC(=O)Nc1ncc(CN2C[C@@]3(Cc4cc(C5CC5)ncc4O3)C[C@@H]2C)s1 [Example 25] middle level

Which bin, given its IC50, does CC(=O)Nc1ncc(CN2CC3(C[C@@H]2C)OCc2ccccc23)s1 (stereo partly shown) [Example 59] occupy? upper level

Please classify: CC(=O)Nc1nc(F)c(CN2CCC[C@@]3(C2)OCc2c3ccnc2Cl)s1 [Example 84-a] middle level

Using the reported IC50, which band applies to CC(=O)Nc1nc(F)c(CN2C[C@@]3(Cc4cc(N5C[C@@H](C)O[C@@H](C)C5)ncc4O3)C[C@@H]2C)s1 [Example 39] ? lower level

Category of CC(=O)Nc1ncc(CN2C[C@@]3(Cc4cc(N5C[C@@H](C)O[C@H](C)C5)ncc4O3)C[C@@H]2C)s1 [Example 40] , please. lower level

Class (by measured IC50) for CC(=O)Nc1nc(F)c(CN2C[C@@]3(Cc4cc(NC(C)C)ncc4O3)C[C@@H]2C)s1 [Example 30] lower level

Exercise: read the entry CC(=O)Nc1ncc(CN2CCCC3(CCc4ccccc43)C2)s1 (stereo not shown) [Example 53] and state which class it falls under. upper level

Would you mind sorting CC(=O)Nc1nc(F)c(CN2C[C@@]3(Cc4cc(N5CCC5)ncc4O3)C[C@@H]2C)s1 [Example 34] into the appropriate category? lower level

Would you mind sorting CC(=O)Nc1nc(F)c(CN2C[C@@]3(Cc4cc(C)ncc4O3)C[C@@H]2C)s1 [Example 23] into the appropriate category? lower level

Which of the defined bands does the recorded IC50 of CC(=O)Nc1ncc(CN2CC3(C[C@@H]2C)OCc2cccnc23)s1 (stereo partly shown) [Example 62] sit within? upper level

* * *

Field: log10 of IC50. Provide a value for each of the compounds that follow.
Measured On: UniProtKB O60502
Protocol: Cellular OGA-Tau MSD Assay
Protocol Conditions: HEK-293T cells transfected with OGT and Tau-V5; Tau-S400-GlcNAc MSD readout
All values: log10 IC50 [nM].

Let me know recorded log10 of IC50 for CC(=O)Nc1nc(F)c(CN2CCCC3(C2)OCc2c3cc[nH]c2=O)s1 (stereo not shown) [Example 86] , thanks. 2.14

Return value of log10 of IC50 for input COc1nccc2c1COC21CCCN(Cc2cnc(NC(C)=O)s2)C1 (stereo not shown) [Example 82] , no commentary. 2.10

Please give measured log10 of IC50 of the following entry: COc1cc2c(cn1)[C@@]1(C[C@H](C)N(Cc3cnc(NC(C)=O)s3)C1)OC2 (single isomer, unassigned) [Example 76-b] 1.58

// Input: CC(=O)Nc1ncc(CN2C[C@@]3(Cc4cc(N5C[C@H](C)O[C@@H](C)C5)ncc4O3)C[C@@H]2C)s1 [Example 42] . Output its log10 of IC50 only. 1.15

Specify reported log10 of IC50 for the compound shown: COc1nccc2c1C[C@]1(C[C@H](C)N(Cc3sc(NC(C)=O)nc3F)C1)O2 [Example 18] 0.60

Item CC(=O)Nc1ncc(CN2CC3(C[C@@H]2C)OCc2ccccc23)s1 (stereo partly shown) [Example 59] : provide log10 of IC50 1.20

Quickly give me recorded log10 of IC50 for COCCOc1cc2c(cn1)O[C@]1(C2)C[C@H](C)N(Cc2sc(NC(C)=O)nc2F)C1 [Example 47] 0.95

Could you please provide reported log10 of IC50 for CC(=O)Nc1ncc(CN2C[C@@]3(Cc4cc(Cl)ncc4O3)C[C@@H]2C)s1 [Example 11] ? Thanks! 0.95

Query log10 of IC50 for CC(=O)Nc1nc(F)c(CN2C[C@@]3(Cc4cc(=O)[nH]cc4O3)C[C@@H]2C)s1 [Example 49] 1.86

Assign log10 of IC50 to the following record: CC(=O)Nc1ncc(CN2C[C@@]3(Cc4cc(N5CCC5)ncc4O3)C[C@@H]2C)s1 [Example 35] 0.60

Tell us which log10 of IC50 value is on record for CC(=O)Nc1nc(F)c(CN2CCC3(Cc4cnc(Cl)cc4O3)C2)s1 (stereo not shown) [Example 7] 2.48

Check the records and state log10 of IC50 for CC(=O)Nc1ncc(CN2C[C@@]3(Cc4cc(C(F)F)ncc4O3)C[C@@H]2C)s1 [Example 27] 1.20

Fill in reported log10 of IC50 for this entry: COc1ccc2c(n1)C[C@]1(C[C@H](C)N(Cc3sc(NC(C)=O)nc3F)C1)O2 [Example 20] 0.60

Provide only the value of recorded log10 of IC50 for COc1cc2c(cn1)O[C@]1(C2)C[C@H](C)N(Cc2sc(NC(C)=O)nc2F)C1 [Example 16] 0.30

Fill in log10 of IC50 for record COc1nccc2c1COC21C[C@H](C)N(Cc2cnc(NC(C)=O)s2)C1 (stereo partly shown) [Example 78] 0.95

Supply reported log10 of IC50 belonging to this compound: CC(=O)Nc1nc(F)c(CN2CCCC3(C2)OCc2cnccc23)s1 (racemic) [Example 69] 1.14

Could you please provide reported log10 of IC50 for CC(=O)Nc1ncc(CN2C[C@@]3(Cc4cc(N5C[C@@H](C)O[C@@H](C)C5)ncc4O3)C[C@@H]2C)s1 [Example 38] ? Thanks! 1.00

Output measured log10 of IC50 for this item: CC(=O)Nc1nc(F)c(CN2C[C@@]3(Cc4cc(C(F)F)ncc4O3)C[C@@H]2C)s1 [Example 26] 0.70

Using the record for CC(=O)Nc1nc(F)c(CN2CCCC3(C2)OCc2c3ccnc2Cl)s1 (racemic) [Example 83] , state its measured log10 of IC50. 1.26

Could you please provide reported log10 of IC50 for CC(=O)Nc1nc(F)c(CN2CCCC3(C2)OCc2cncnc23)s1 (stereo not shown) [Example 88] ? Thanks! 1.96

// Input: CC(=O)Nc1nc(F)c(CN2CCCC3(C2)OCc2ccncc23)s1 (stereo not shown) [Example 73] . Output its log10 of IC50 only. 1.37

Give the reported log10 of IC50 for this compound. COCCN(C)c1cc2c(cn1)O[C@]1(C2)C[C@H](C)N(Cc2cnc(NC(C)=O)s2)C1 [Example 32] 0.85

Give log10 of IC50 for the following compound: CC(=O)Nc1ncc(CN2CCCC3(C2)OCc2cncnc23)s1 (stereo not shown) [Example 89] 1.93

Please look at this compound and report its log10 of IC50: CC(=O)Nc1ncc(CN2CCC3(Cc4cnc(Cl)cc4O3)C2)s1 (stereo not shown) [Example 8] 2.82
